tested on: GADD153 promoter activity in T10b45 cells
Reported values of GFP fold induction at 10 × IC50 for individual entries
observation.type: GFP fold induction at 10 × IC50

> print(dat)
                                   compound  data.value
1  O=C1[O][Pt]2([NH][C@@H]3CCCC[C@H]3[NH]2)[O]C1=O         100
2  N[C@@H]1CCCC[C@H]1N.[Cl][Pt+2]([Cl])([Cl])[Cl]         120
3  CC(=O)[O][Pt]([NH2])([Cl])([Cl])([NH]C1CCCCC1)[O]C(C)=O          11
4  N.N.[Cl][Pt+2][Cl] [Transplatin, transplatin]          10
5     N.N.O=C([O-])C1(C(=O)[O-])CCC1.[Pt+2]          23
6              N.N.[Cl][Pt][Cl] [Cisplatin]          38

Taken from patent US6344324B2.
